test system: MCF7; test: Anticancer activity against human MCF7 cells expressing estrogen receptor by MTT assay; format: functional, cell-based
pIC50: −log10 of the molar value.
metric: pIC50

Solved entries (count: 8):
# compound-structure-string, pIC50
records = [
    ("Cc1ccc(C(=O)/C=C/C2=CC(=C/NC(C)C)/C(=O)c3ccc4c(C)cc(=O)oc4c32)c(C)c1", 4.46),
    ("CCN/C=C1C=C(/C=C/C(=O)c2ccccc2)c2c(ccc3c(C)cc(=O)oc23)C/1=O", 4.06),
    ("CCCCN/C=C1C=C(/C=C/C(=O)c2ccc(OC)cc2)c2c(ccc3c(C)cc(=O)oc23)C/1=O", 4.04),
    ("Cc1cc(=O)oc2c3c(ccc12)C(=O)/C(=C\\NC(C)C)C=C3C=O", 3.89),
    ("CCCCN/C=C1/C=C(C=O)c2c(ccc3c(C)cc(=O)oc23)C1=O", 5.19),
    ("Cc1ccc(C(=O)/C=C/C2=CC(=C/NC(C)C)/C(=O)c3ccc4c(C)cc(=O)oc4c32)cc1", 4.68),
    ("CCN/C=C1C=C(/C=C/C(=O)c2ccc(O)cc2)c2c(ccc3c(C)cc(=O)oc23)C/1=O", 4.07),
    ("Cc1cc(=O)oc2c3c(ccc12)C(=O)/C(=C\\NC(C)(C)C)C=C3/C=C/C(=O)c1ccccc1", 4.04),
]

1. Cc1ccc(C(=O)/C=C/C2=CC(=C/NC(C)(C)C)/C(=O)c3ccc4c(C)cc(=O)oc4c32)cc1
2. Cc1cc(=O)oc2c3c(ccc12)C(=O)/C(=C\NC(C)(C)C)C=C3C=O
3. Cc1cc(=O)oc2c3c(ccc12)C(=O)/C(=C\NC(C)C)C=C3/C=C/C(=O)c1ccc(O)cc1
4. CCCN/C=C1/C=C(C=O)c2c(ccc3c(C)cc(=O)oc23)C1=O
Which order do these items take when sorted by rising pIC50? List them. Lab note: record answer as labels in requested order.
1, 3, 2, 4
(1: 4.01, 3: 4.49, 2: 4.70, 4: 5.10)

* * *

system: MCF7; test: Anticancer activity against human MCF7 cells expressing estrogen receptor by MTT assay; assay type: functional, cell-based
pIC50: −log10 of the molar value.
metric: pIC50

Solved entries (count: 10):
# compound, observed-measurement
measured = [
    ("Cc1cc(=O)oc2c1ccc1c(O)c(C=O)cc(/C=C/C(=O)c3ccc(O)cc3)c12", "< 4.00"),
    ("Cc1cc(=O)oc2c1ccc1c(O)c(C=O)cc(/C=C/C(=O)c3ccccc3)c12", "< 4.00"),
    ("CCCCN/C=C1C=C(/C=C/C(=O)c2ccc(C)cc2C)c2c(ccc3c(C)cc(=O)oc23)C/1=O", "< 4.00"),
    ("CCN/C=C1C=C(/C=C/C(=O)c2ccc(C)cc2)c2c(ccc3c(C)cc(=O)oc23)C/1=O", "< 4.00"),
    ("Cc1cc(=O)oc2c3c(ccc12)C(=O)/C(=C\\NC(C)C)C=C3/C=C/C(=O)c1ccccc1", "< 4.00"),
    ("CCN/C=C1/C=C(C=O)c2c(ccc3c(C)cc(=O)oc23)C1=O", "< 4.00"),
    ("CCCCN/C=C1C=C(/C=C/C(=O)c2ccccc2)c2c(ccc3c(C)cc(=O)oc23)C/1=O", 4.00),
    ("CC/C(=C(\\c1ccccc1)c1ccc(OCCN(C)C)cc1)c1ccccc1 [TAMOXIFEN]", 4.93),
    ("COc1ccc(C(=O)/C=C/c2cc(C=O)c(O)c3ccc4c(C)cc(=O)oc4c23)cc1", "< 4.00"),
    ("CCCCN/C=C1C=C(/C=C/C(=O)c2ccc(O)cc2)c2c(ccc3c(C)cc(=O)oc23)C/1=O", 4.40),
]

For reference, reported pIC50 for `Cc1cc(=O)oc2c1ccc1c(O)cccc12` stands at < 4.00

For reference, reported pIC50 for `Cc1cc(=O)oc2c3c(ccc12)C(=O)/C(=C\NC(C)(C)C)C=C3/C=C/C(=O)c1ccc(O)cc1` stands at < 4.00

For reference, reported pIC50 for `CN/C=C1/C=C(C=O)c2c(ccc3c(C)cc(=O)oc23)C1=O` stands at 5.42

For reference, reported pIC50 for `COc1ccc(C(=O)/C=C/C2=CC(=C/NC(C)(C)C)/C(=O)c3ccc4c(C)cc(=O)oc4c32)cc1` stands at < 4.00

For reference, reported pIC50 for `CCN/C=C1C=C(/C=C/C(=O)c2ccc(OC)cc2)c2c(ccc3c(C)cc(=O)oc23)C/1=O` stands at 4.52

For reference, reported pIC50 for `CCN/C=C1C=C(/C=C/C(=O)c2ccc(C)cc2C)c2c(ccc3c(C)cc(=O)oc23)C/1=O` stands at < 4.00

For reference, reported pIC50 for `Cc1cc(=O)oc2c1ccc1c(O)c(C=O)cc(C=O)c12` stands at < 4.00

For reference, reported pIC50 for `COc1ccc(C(=O)/C=C/C2=CC(=C/NC(C)C)/C(=O)c3ccc4c(C)cc(=O)oc4c32)cc1` stands at < 4.00

For reference, reported pIC50 for `CCCCCCCN/C=C1/C=C(C=O)c2c(ccc3c(C)cc(=O)oc23)C1=O` stands at < 4.00

For reference, reported pIC50 for `Cc1ccc(C(=O)/C=C/C2=CC(=C/NC(C)(C)C)/C(=O)c3ccc4c(C)cc(=O)oc4c32)c(C)c1` stands at < 4.00

Provenance of the data: ChEMBL document CHEMBL1287673
